Recorded values, source ChEMBL document CHEMBL1961873.

# inhibition per record follows
# TEST TARGET: Phosphorylase b kinase gamma catalytic chain, liver/testis isoform (Homo sapiens) (UniProt P15735);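 also: reported value is the mean inhibition of PHKG2 from the GSK_PKIS screening set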
# Sequence (P15735 whole entry, canonical isoform): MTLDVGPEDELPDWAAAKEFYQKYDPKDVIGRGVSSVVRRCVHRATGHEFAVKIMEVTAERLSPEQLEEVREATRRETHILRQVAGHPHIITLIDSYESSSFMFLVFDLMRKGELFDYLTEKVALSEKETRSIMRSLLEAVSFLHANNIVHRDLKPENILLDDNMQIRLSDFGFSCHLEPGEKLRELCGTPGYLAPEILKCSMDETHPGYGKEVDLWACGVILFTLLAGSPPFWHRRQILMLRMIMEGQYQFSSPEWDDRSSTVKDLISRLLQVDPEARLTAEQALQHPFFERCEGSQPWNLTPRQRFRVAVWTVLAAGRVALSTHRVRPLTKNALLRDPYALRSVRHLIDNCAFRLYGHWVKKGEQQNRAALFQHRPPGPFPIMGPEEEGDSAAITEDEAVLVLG
# CONDITION NOTES: at 1 µM
Quick reminder: number only, in %, skip the unit.

CC(=O)Nc1cccc(C#Cc2cncnc2Nc2ccc(OCc3cccc(F)c3)c(Cl)c2)n1; 6.86
N#Cc1c(NC(=O)c2cccc3ccccc23)sc2c1CCCC2; 1.46
CC1=C(C(=O)Nc2ccc3[nH]ncc3c2)C(c2ccc3ccccc3c2)CC(=O)N1 (stereo unspecified); 1.22

Let us examine a further case.
Task: Specify measured inhibition for `CS(=O)(=O)CCNCc1ccc(-c2ccc3ncnc(Nc4ccc(OCc5cccc(F)c5)c(C(F)(F)F)c4)c3c2)o1` .
Result: 4.64
